Numbers sourced from the supplement of paper PMC5412046.

test system: SB.msgc-1; test: area under the dose-response curve of % viability (trapezoidal, 11 doses) (% viability x log10 concentration); higher = less cytotoxic; conditions: SB.msgc-1 (sporadic gastric cancer)
Overview of reported area under the dose-response curve across a group of molecules:
experimental endpoint: area under the dose-response curve

1. COc1cc2ncnc(Nc3ccc(F)c(Cl)c3)c2cc1NC(=O)/C=C/CN1CCCCC1 [Dacomitinib] (top concentration 46.0829 µM) = 230
2. O=C(c1ccc(/C=C/c2n[nH]c3ccccc23)cc1)N1CCNCC1 [KW-2449] (top concentration 46.0829 µM) = 517
3. CCCc1cc(C(N)=S)ccn1 [Protionamide] (top concentration 46.0829 µM) = 522
4. CC1=C(CC(=O)O)c2cc(F)ccc2/C1=C\c1ccc([S+](C)[O-])cc1 (centres undefined) [Sulindac] (top concentration 46.0829 µM) = 452

###

test system: SB.mhdgc-1; experiment: viability at highest tested concentration (MAXR) relative to DMSO; higher = less cytotoxic; conditions: SB.mhdgc-1 (hereditary c.1380delA CDH1 gastric cancer)
experimental endpoint: viability (%)

1. O=C(/C=C/c1cccc([S+](=O)([O-])Nc2ccccc2)c1)NO [Belinostat] (top concentration 92.1659 µM) = 3.07
2. C=C1/C(=C\C=C2/CCC[C@]3(C)[C@@H]([C@H](C)/C=C/[C@H](C)C(C)C)CC[C@@H]23)C[C@@H](O)C[C@@H]1O [Doxercalciferol] (top concentration 46.0829 µM) = 18.7
3. Nc1ccc([S+](=O)([O-])Nc2ccccn2)cc1 [Sulfapyridine] (top concentration 46.0829 µM) = 98.6

###

Overview of reported AC50 for growth inhibition (log10 M) across a group of compounds:
test system: SB.msgc-1; assay: AC50 for growth inhibition (viability) (log10 M); higher = less potent; details: SB.msgc-1 (sporadic gastric cancer)
experimental endpoint: AC50 for growth inhibition (log10 M)

1. Clc1ccc(-c2nc3sccn3c2/C=N/OCc2ccc(Cl)c(Cl)c2)cc1 [CITCO] = -4.73
2. CCc1cnn2c(NCc3ccc[n+]([O-])c3)cc(N3CCCC[C@H]3CCO)nc12 [Dinaciclib] = -7.88
3. CCNC(=O)Nc1ccc(-c2nc3c(c(N4CCOC[C@@H]4C)n2)CCN(C2COC2)C3)cc1 [GDC-0349] = -4.83
4. C[N+](C)([O-])CCNc1ccc(NCC[N+](C)(C)[O-])c2c1C(=O)c1c(O)ccc(O)c1C2=O [Banoxantrone] = -4.88
5. CCOC(=O)Nc1ccc(NCc2ccc(F)cc2)cc1N [Retigabine] = -4.83
6. N[S+](=O)([O-])OC[C@@H]1C[C@@H](n2ccc3c(N[C@H]4CCc5ccccc54)ncnc32)C[C@@H]1O [MLN-4924] = -5.48
7. C[C@](O)(CS(=O)(=O)c1ccc(F)cc1)C(=O)Nc1ccc(C#N)c(C(F)(F)F)c1 [(R)-Bicalutamide] = -6.03
8. O=C(NOCC1CC1)c1ccc(F)c(F)c1Nc1ccc(I)cc1Cl = -4.83

###

Overview of reported area under the dose-response curve across a group of compounds:
system: SB.mhdgc-1; experiment: area under the dose-response curve of % viability (trapezoidal, 11 doses) (% viability x log10 concentration); higher = less cytotoxic; conditions: SB.mhdgc-1 (hereditary c.1380delA CDH1 gastric cancer)
experimental endpoint: area under the dose-response curve

1) CCCOc1ccc(C(=O)OCCN(CC)CC)cc1N [Proparacaine] (top concentration 46.0829 µM) = 580
2) C[C@]12CC[C@@H]3c4ccc(O)cc4CC[C@H]3[C@@H]1[C@@H](O)[C@@H](O)[C@@H]2O [Estetrol] (top concentration 46.0829 µM) = 439
3) CC(=O)OCCN1C(=O)c2c(C)nc3ccc([S+](=O)([O-])N4CCOCC4)cc3c2C1=O [Ivachtin] (top concentration 46.0829 µM) = 504
4) CS[C@H]1SC[C@@H]2C(=O)N(C)[C@H](C(C)C)C(=O)OC[C@H](NC(=O)c3cnc4ccccc4n3)C(=O)N[C@H](C)C(=O)N(C)[C@H]1C(=O)N(C)[C@H](C(C)C)C(=O)OC[C@H](NC(=O)c1cnc3ccccc3n1)C(=O)N[C@H](C)C(=O)N2C [Echinomycin] (top concentration 46.0829 µM) = 313
5) Cc1cc(Nc2ncc3c(n2)N(C)C(=O)N(c2cc(NC(=O)c4cccc(C(F)(F)F)c4)ccc2C)C3)n(C)n1 [Pluripotin] (top concentration 46.0829 µM) = 429
